target: DGKα (Homo sapiens (Human)); test: Human DGKα kinase activity inhibition assay (ADP-Glo); type: biochemical; details: recombinant full-length human DGKα, 55 μM ATP, 7 μM 1,2-dioleoyl-sn-glycerol, read-out: IC50 values of examples in in vitro human DGKa kinase activity inhibition assays
pIC50: −log10 of the molar value.
# cutoff 8 applies to pIC50; >= gives yes, < gives no

Request: Could you verify whether the entry Cn1c(=O)c(C#N)c(N2CCC(c3cccc4ccoc34)CC2)c2ccccc21 [Example 73] shows pIC50 of no less than 8?
Result: no

Request: Next compound: Cn1c(=O)c(C#N)c(N2CCC(c3cccc4nccnc34)CC2)c2ccccc21 [Example 79]
Result: no

Request: One more compound: Cc1ccc2oc(C3(C)CCN(c4c(C#N)c(=O)n(C)c5c(C)cccc45)CC3)nc2c1 [Example 263]
Result: no

Request: Next: Cc1ccc2oc(C3CCN(c4c(C(N)=O)c(=O)n(C)c5ccc(Br)cc45)CC3)nc2c1 [Example 492]
Result: yes

Request: Now the compound Cc1ccc2oc(C3CCN(c4c(C#N)c(=O)n(C)c5ccc(C)cc45)CC3)nc2c1 [Example 166]
Result: yes

Request: Another compound: Cn1c(=O)c(C#N)c(N2CCC(c3ccc(S(C)(=O)=O)cc3)CC2)c2ccccc21 [Example 65]
Result: no

----------
molecular target: DGKα (Homo sapiens (Human), UniProt P23743); experiment: Human DGKα kinase activity inhibition assay (ADP-Glo); conditions: recombinant full-length human DGKα, 55 μM ATP, 7 μM 1,2-dioleoyl-sn-glycerol, read-out: IC50 values of examples in in vitro human DGKa kinase activity inhibition assays
Sequence (P23743 other isoform, or with tags, fused parts or gaps): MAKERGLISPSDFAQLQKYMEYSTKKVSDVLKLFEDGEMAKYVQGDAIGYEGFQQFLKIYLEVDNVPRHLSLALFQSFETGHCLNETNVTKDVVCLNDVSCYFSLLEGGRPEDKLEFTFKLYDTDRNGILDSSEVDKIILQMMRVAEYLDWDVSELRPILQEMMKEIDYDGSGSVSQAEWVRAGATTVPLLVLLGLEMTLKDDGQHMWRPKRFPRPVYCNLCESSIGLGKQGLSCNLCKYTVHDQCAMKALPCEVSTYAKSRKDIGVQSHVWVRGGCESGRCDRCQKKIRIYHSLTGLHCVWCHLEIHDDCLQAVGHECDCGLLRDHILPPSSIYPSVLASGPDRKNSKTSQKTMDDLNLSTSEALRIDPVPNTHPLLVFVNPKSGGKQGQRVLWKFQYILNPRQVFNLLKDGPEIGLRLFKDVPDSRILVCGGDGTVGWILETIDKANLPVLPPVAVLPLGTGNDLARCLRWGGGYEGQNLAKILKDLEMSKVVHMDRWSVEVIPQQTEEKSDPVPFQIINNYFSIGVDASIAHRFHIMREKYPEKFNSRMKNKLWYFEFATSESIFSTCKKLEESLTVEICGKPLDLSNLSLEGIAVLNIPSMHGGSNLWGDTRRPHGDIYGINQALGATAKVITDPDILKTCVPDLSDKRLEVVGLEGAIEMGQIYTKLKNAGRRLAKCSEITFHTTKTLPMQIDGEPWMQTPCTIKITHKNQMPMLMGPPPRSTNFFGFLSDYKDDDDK
experimentalReadout: IC50 (nM)
Answers are plain numbers, in nM.

# compound, IC50 / nM
records = [
    ("Cn1c(=O)c(C#N)c(N2CCC(O)(c3ccc(Cl)cc3)CC2)c2ccccc21 [Example 151]", 486),
    ("Cc1ccc2oc(C3CCN(c4c(C(N)=O)c(=O)n(C)c5ccc(P(C)(C)=O)cc45)CC3)nc2c1 [Example 453]", 598),
    ("Cc1ccc2oc(C3CCN(c4c(C#N)c(=O)n(C)c5cc(N(C)C6COC6)ccc45)CC3)nc2c1 [Example 398]", 1.7),
    ("Cc1ccc2oc(C3CCN(c4c(C(N)=O)c(=O)n(C)c5cc(OCC6CO6)ccc45)CC3)nc2c1 (stereo not drawn) [Example 481]", 2),
    ("Cc1cccc(-c2nnc(C3CCN(c4c(C#N)c(=O)n(C)c5ccccc45)CC3)o2)c1 [Example 353]", 254),
]

Respectfully, I request IC50 for each entry included below.
1. Cc1ccc2oc(C3(C)CCN(c4c(C#N)c(=O)n(C)c5c(C6COC6)cccc45)CC3)nc2c1 [Example 245]
2. Cc1ccc2oc(C3(C)CCN(c4c(C#N)c(=O)n(C)c5cc(OCC6(O)CC6)ccc45)CC3)nc2c1 [Example 239]
3. COc1ccccc1C1(O)CCN(c2c(C#N)c(=O)n(C)c3ccccc23)CC1 [Example 331]
4. Cc1ccc2oc(C3CCN(c4c(C#N)c(=O)n(C)c5cc(OC6CCOC6)ccc45)CC3)nc2c1 (single isomer, unassigned) [Example 380]
5. Cn1c(=O)c(C#N)c(N2CCC(c3ccc4cc(C(F)F)cnc4c3)CC2)c2ccccc21 [Example 378]
6. COCCOc1ccc2c(N3CCC(c4nc5cc(C)ccc5o4)CC3)c(C(N)=O)c(=O)n(C)c2c1 [Example 480]
7. Cn1c(=O)c(C#N)c(N2CCC(C)(c3ccccc3)CC2)c2ccccc21 [Example 58]

Result:
5.9
0.6
861
0.4
23
9.8
2.6

----------
target: DGKα (Homo sapiens (Human)); experiment: Human DGKα kinase activity inhibition assay (ADP-Glo); conditions: recombinant full-length human DGKα, 55 μM ATP, 7 μM 1,2-dioleoyl-sn-glycerol, read-out: IC50 values of examples in in vitro human DGKa kinase activity inhibition assays
So I've got a bunch of compounds here, and I need their pIC50 values.
Numbers only, as −log10 of the molar value.

Examples with their reported pIC50 follow.
# givenSmiles, pIC50
measured = [
    ("Cc1ccc2oc(C3(C)CCN(c4c(C#N)c(=O)n(C)c5c(OC6CC6)cccc45)CC3)nc2c1", 7.44),
    ("Cn1c(=O)c(C#N)c(N2CCC(c3cccc(C4CC4)c3)CC2)c2ccccc21", 8.68),
    ("Cc1ccc2c(N3CCC(C)(c4nc5ccccc5o4)CC3)c(C#N)c(=O)n(C)c2c1", 9.22),
]

Give pIC50 for all compounds that follow.
1. Cc1ccc2nc(C3(C)CCN(c4c(C#N)c(=O)n(C)c5ccc(Cl)cc45)CC3)oc2c1
2. Cc1ccc2oc(C3(C)CCN(c4c(C#N)c(=O)n(C)c5cc(CC6COC6)ccc45)CC3)nc2c1

Result:
5.87
8.00

Please look at the items below and tell me pIC50 for each one, in order.
1. COc1ccc2c(c1)c(N1CCC(c3nc4ccc(C)cc4o3)CC1)c(C#N)c(=O)n2C
2. Cn1c(=O)c(C#N)c(N2CCC(O)(c3cccc(C(F)(F)F)c3)CC2)c2ccccc21
3. Cc1ccc2oc(C3CCN(c4c(C(N)=O)c(=O)n(C)c5ccc(OCC(F)F)cc45)CC3)nc2c1

Result:
8.24
5.97
6.62

----------
Answer each item with its documented pIC50.
molecular target: DGKα (Homo sapiens (Human), UniProt P23743); test: Human DGKα kinase activity inhibition assay (ADP-Glo); type: biochemical; details: recombinant full-length human DGKα, 55 μM ATP, 7 μM 1,2-dioleoyl-sn-glycerol, read-out: IC50 values of examples in in vitro human DGKa kinase activity inhibition assays
Numbers only, as −log10 of the molar value.

# compound, valueMeasured
data = [
    ("Cc1ccc2oc(C3(C)CCN(c4c(C#N)c(=O)n(C)c5c(C#N)cccc45)CC3)nc2c1", 6.84),
]

Provide pIC50 for all items below, preserving their order.
1. Cc1cc2c(N3CCC(c4nc(-c5ccccc5C)no4)CC3)c(C#N)c(=O)n(C)c2cc1NCCO
2. Cc1ccc2oc(C3(C)CCN(c4c(C#N)c(=O)n(C)c5c(S(C)(=O)=O)cccc45)CC3)nc2c1
3. Cn1c(=O)c(C#N)c(N2CCC(c3nc4ccccc4s3)CC2)c2cc(Br)ccc21
4. COc1ccc2c(N3CCC(c4ccccc4)CC3)c(C#N)c(=O)n(C)c2c1

Result:
1: 8.77; 2: 8.96; 3: 9.22; 4: 7.60

----------
target: UniProt:P23743; assay: Human DGKα kinase activity inhibition assay (ADP-Glo); type: biochemical; conditions: recombinant full-length human DGKα, 55 μM ATP, 7 μM 1,2-dioleoyl-sn-glycerol, read-out: IC50 values of examples in in vitro human DGKa kinase activity inhibition assays
Assign pIC50 to each entry below.
Answers are plain numbers, as −log10 of the molar value.

Example entries and their recorded answers appear below.
# molecule, pIC50
records = [
    ("Cc1ccc2oc(C3CCN(c4c(C#N)c(=O)n(C)c5cc(OCC(=O)O)ccc45)CC3)nc2c1", 7.47),
    ("Cc1ccc2oc(C3CCN(c4c(C#N)c(=O)n(C)c5cc(OC6CCOC6)ccc45)CC3)nc2c1 (single isomer, unassigned) [Example 381]", 8.13),
    ("Cn1c(=O)c(C#N)c(N2CCC(C)(c3nc4ccccc4o3)CC2)c2cc(F)ccc21", 9.40),
]

Turning now to a further molecule:
Request: What value of measured pIC50 is listed for `COc1ccc2c(c1)c(N1CCC(C)(c3nc4cc(C)ccc4o3)CC1)c(C#N)c(=O)n2C` ?
Result: 8.19

----------
Target: DGKα (Homo sapiens (Human), UniProt P23743)
Assay: Human DGKα kinase activity inhibition assay (ADP-Glo)
Settings: recombinant full-length human DGKα, 55 μM ATP, 7 μM 1,2-dioleoyl-sn-glycerol, read-out: IC50 values of examples in in vitro human DGKa kinase activity inhibition assays
Protocol: Human DGKα Kinase Activity Inhibition Assay Human DGKα inhibitory activity of compounds of the present invention was quantified employing the human DGKα kinase activity assay as described in the following paragraphs. In essence, the enzyme activity was measured by quantification of the adenosine-di-phosphate (ADP) generated as a co-product of the enzyme reaction via the “ADP-Glo™ Kinase Assay” kit from the company Promega. […]
experimentalReadout: pIC50
Give bare numbers, as −log10 of the molar value.

For orientation, consider the following solved cases.
# givenSmiles, pIC50
records = [
    ("Cc1ccc2oc(C3(C)CCN(c4c(C#N)c(=O)n(C)c5c(Br)cccc45)CC3)nc2c1", 6.52),
    ("Cc1ccc2oc(C3(C)CCN(c4c(C(N)=O)c(=O)n(C)c5ccc(P(C)(C)=O)cc45)CC3)nc2c1", 5.59),
    ("Cn1c(=O)c(C#N)c(N2CCC(c3ccc4c(c3)C(C)(C)CN4)CC2)c2ccccc21", 8.29),
]

Proceed to the following item.
Request: What does the data say about its pIC50? Entry: `COC1(c2nc3ccccc3o2)CCN(c2c(C(N)=O)c(=O)n(C)c3ccccc23)CC1`
Result: 8.12

Entry source: patent US11998539B2
